System: Rattus norvegicus
Assay Procedure: Inhibition of sorbitol accumulation in diabetic rat by acute test dosed at 10 mg/kg
Type: functional
inhibition in vivo at 10 mg/kg vs 80%: at or above is fulfilled, below is not fulfilled.

Check out these entries, answers already filled in.
1. Cc1c(S(=O)(=O)c2ccc(O)nn2)sc2ccc(Cl)cc12 : fulfilled
2. O=c1ccc(S(=O)(=O)c2ccc(Cl)cc2)n[nH]1 : not fulfilled
3. O=S(=O)(c1ccc(Cl)c(Cl)c1)c1ccc(O)nn1 : fulfilled
4. O=S(=O)(c1ccc(O)nn1)c1ccc(F)cc1Cl : fulfilled
5. Cc1ccc2oc(S(=O)(=O)c3ccc(O)nn3)c(C)c2c1 : not fulfilled

Threshold query (inhibition in vivo at 10 mg/kg >= 80%) on Cc1c(S(=O)(=O)c2ccc(O)nn2)oc2ccc(F)cc12
fulfilled

###

Test system: Rattus norvegicus
Assay Procedure: Inhibition of sorbitol accumulation in diabetic rat by chronic test dosed at 10 mg/kg
Format: functional
Quantity Measured: inhibition in vivo at 10 mg/kg (%)
Just the number please, in %, no unit attached.

These solved cases illustrate the format of a correct answer.
1) CCc1c(S(=O)(=O)c2ccc(O)nn2)oc2ccc(Cl)cc12 : 48
2) Cc1c(S(=O)(=O)c2ccc(O)nn2)oc2ccc(C(F)(F)F)cc12 : 102
3) Cc1c(S(=O)(=O)c2ccc(O)nn2)oc2ccc(F)cc12 : 100

Next, consider the following molecule.
Identify measured inhibition in vivo at 10 mg/kg corresponding to O=c1ccc(S(=O)(=O)c2cccc3ccccc23)n[nH]1
60

###

Assay Procedure: Maximum plasma concentration in rat was determined
Type: ADME, organism-based
Quantity Measured: Cmax (ng/mL)
Just the number please, in ng/mL, no unit attached.

Identify measured Cmax corresponding to Cc1c(S(=O)(=O)c2ccc(=O)[nH]n2)oc2ccc(Cl)cc12
9000

###

Entries and their inhibition in vivo at 20 mg/kg
System: Rattus norvegicus
Assay Procedure: Inhibition of sorbitol accumulation in diabetic rat by acute test dosed at 20 mg/kg
Type: functional
Just the number please, in %, no unit attached.

1. O=S(=O)(c1cc(Cl)cc(Cl)c1)c1ccc(O)nn1 : 91
2. O=S(=O)(c1ccc(Cl)c(Cl)c1)c1ccc(O)nn1 : 98
3. O=c1ccc(S(=O)(=O)c2ccc(C(F)(F)F)cc2)n[nH]1 : 67
4. O=c1ccc(S(=O)(=O)Cc2cccc(C(F)(F)F)c2F)n[nH]1 : 61
5. O=S(=O)(c1ccc(O)nn1)c1ccc(F)cc1Cl : 106
6. O=c1ccc(S(=O)(=O)c2ccccc2F)n[nH]1 : 91

Please indicate recorded inhibition in vivo at 20 mg/kg of COc1ccc2oc(S(=O)(=O)c3ccc(=O)[nH]n3)cc2c1 measured with Rattus norvegicus.
49

Please indicate recorded inhibition in vivo at 20 mg/kg of O=c1ccc(S(=O)(=O)c2oc3ccc(Cl)cc3c2-c2ccccc2)n[nH]1 measured with Rattus norvegicus.
27

Please indicate recorded inhibition in vivo at 20 mg/kg of O=c1ccc(S(=O)(=O)c2cccc(C(F)(F)F)c2)n[nH]1 measured with Rattus norvegicus.
45

Please indicate recorded inhibition in vivo at 20 mg/kg of O=S(=O)(Cc1cccc(C(F)(F)F)c1)c1ccc(O)nn1 measured with Rattus norvegicus.
88

Please indicate recorded inhibition in vivo at 20 mg/kg of O=S(=O)(c1ccc(O)nn1)c1ccccc1Cl measured with Rattus norvegicus.
101

Please indicate recorded inhibition in vivo at 20 mg/kg of O=c1ccc(S(=O)(=O)Cc2c(F)cccc2Cl)n[nH]1 measured with Rattus norvegicus.
42

###

Test system: Rattus norvegicus
Assay Procedure: Inhibition of sorbitol accumulation in diabetic rat by acute test dosed at 10 mg/kg
Format: functional
Entries and their inhibition in vivo at 10 mg/kg
Just the number please, in %, no unit attached.

These solved cases illustrate the format of a correct answer.
1) Cc1c(S(=O)(=O)c2ccc(O)nn2)oc2ccc(C(F)(F)F)cc12 : 101
2) Cc1c(S(=O)(=O)c2ccc(O)nn2)oc2cc(Cl)ccc12 : 40
3) O=c1ccc(S(=O)(=O)c2cccc3ccccc23)n[nH]1 : 88
4) O=S(=O)(c1ccc(O)nn1)c1ccccc1Cl : 96
5) O=c1ccc(S(=O)(=O)c2ccc(C(F)(F)F)cc2)n[nH]1 : 44

Please indicate recorded inhibition in vivo at 10 mg/kg of O=S(=O)(c1ccc(O)nn1)c1oc2ccccc2c1-c1ccc(F)cc1 measured with Rattus norvegicus.
66

Please indicate recorded inhibition in vivo at 10 mg/kg of O=S(=O)(c1ccc(O)nn1)c1ccc(Br)cc1F measured with Rattus norvegicus.
81

Please indicate recorded inhibition in vivo at 10 mg/kg of O=c1ccc(S(=O)(=O)c2ccccc2F)n[nH]1 measured with Rattus norvegicus.
79

Please indicate recorded inhibition in vivo at 10 mg/kg of O=c1ccc(S(=O)(=O)c2cc3ccccc3[nH]2)n[nH]1 measured with Rattus norvegicus.
75

Please indicate recorded inhibition in vivo at 10 mg/kg of O=c1ccc(S(=O)(=O)c2cccc(Cl)c2Cl)n[nH]1 measured with Rattus norvegicus.
77

Please indicate recorded inhibition in vivo at 10 mg/kg of O=c1ccc(S(=O)(=O)Cc2c(Cl)cccc2Cl)n[nH]1 measured with Rattus norvegicus.
42

Please indicate recorded inhibition in vivo at 10 mg/kg of O=S(=O)(c1ccccc1)c1ccc(O)nn1 measured with Rattus norvegicus.
40

Please indicate recorded inhibition in vivo at 10 mg/kg of O=c1ccc(S(=O)(=O)c2cc3cc(Cl)cc(Cl)c3o2)n[nH]1 measured with Rattus norvegicus.
32

###

Assay System: Aldo-keto reductase family 1 member B1 (Homo sapiens)
Quantity Measured: IC50 (nM)
Just the number please, in nM, no unit attached.

1. Cc1ccc2sc(S(=O)(=O)c3ccc(O)nn3)cc2c1 : 160
2. CC(C)c1c(S(=O)(=O)c2ccc(O)nn2)oc2ccc(Cl)cc12 : 92

Next, consider the following molecule.
Please indicate recorded IC50 of O=S(=O)(Cc1cccc(C(F)(F)F)c1)c1ccc(O)nn1 measured with Aldo-keto reductase family 1 member B1 (Homo sapiens).
72

Ref: ChEMBL document CHEMBL1141107
